System: Rattus norvegicus
procedure.summary: Amount of urine output was measured in rat at a dose of 10 mg/kg administered orally
Assay type: ADME, organism-based
Design: dose 10 mg/kg, route oral
test.context: in vivo, po
readout.kind: Urine volume (ml 4hr-1)
Give a bare numeral; the unit ml 4hr-1 is implied.

Consider the following illustrative entries.
Cc1ccccc1C(=O)Nc1ccc(C(=O)N2Cc3ccsc3Cc3ccccc32)cc1 ... 4.5
Cc1ccc(F)cc1C(=O)Nc1ccc(C(=O)N2Cc3sccc3Cc3ccccc32)cn1 ... 16.5
O=C(Nc1ccc(C(=O)N2Cc3sccc3Cc3ccccc32)cc1)c1ccc(Cl)cc1Cl ... 5.8
Cc1ccc(F)cc1C(=O)Nc1ccc(C(=O)N2Cc3cccn3Cc3ccccc32)c(Cl)c1 ... 35
Cc1ccc(F)cc1C(=O)Nc1ccc(C(=O)N2Cc3sccc3Cc3ccccc32)c(Cl)c1 ... 30

Please find the next molecule below.
Lookup result for Cc1ccccc1C(=O)Nc1ccc(C(=O)N2Cc3sccc3Cc3ccccc32)cc1 ; measured Urine volume: 13.5
